Sourced from patent US11413278B2

Tested on: C. elegans
PROTOCOL_NOTES: C. elegans lifespan assays (liquid and plate)
Format: in vivo, Caenorhabditis elegans
TEST_PARAMETERS: summary score
REPORTED_METRIC: M = Lifespan-extending scores in worms

Data request, read-out M = Lifespan-extending scores in worms, for O=C(NCc1cccnc1)/C(=C/c1ccc(-c2ccc(Cl)cc2)o1)S(=O)(=O)c1ccccc1
0

Could you do the same for [O-][n+]1onc2c3nsnc3c(Br)cc21 , please?
2 (2 for observed in more than 2 trials)

Could you do the same for O=C(Nc1cccc(C(F)(F)F)c1)c1ccc([N+](=O)[O-])o1 , please?
2 (2 for observed in more than 2 trials)

Note, next up: O=C(NCc1cccnc1)/C(=C\c1cccc(Oc2ccccc2)c1)S(=O)(=O)c1ccccc1
2 (2 for observed in more than 2 trials)

Same for COc1ccc(C(=O)/C=C/c2cccc(Cl)c2)c(OC)c1
0

Same read-out for CCc1ccc(Oc2nc3ccccn3c(=O)c2/C=C(\C#N)C(=O)NCc2ccco2)cc1 ?
0

Entry to check: Cc1cc(N)n(-c2ccccc2C(=O)O)n1
0

Try O=C(c1ccc([N+](=O)[O-])o1)N1CCc2ccccc21 next.
2 (2 for observed in more than 2 trials)

Please do the same for CC(C)(C)c1ccc(OCC(=O)Nc2ccc3c4c(cccc24)C(=O)NC3=O)cc1 as well.
0

For Oc1ncnc2sc3c(c12)CCC3 then?
2 (2 for observed in more than 2 trials)

Also CNC(=O)/C(C#N)=C/c1c(Oc2ccc(C(C)(C)C)cc2)nc2ccccn2c1=O ?
0

Note, next up: N=C1S/C(=C\c2cn(-c3ccccc3)nc2-c2cccs2)C(=O)N1c1nccs1
2 (2 for observed in more than 2 trials)

Same read-out for COc1ccc(C(=O)/C=C/c2ccc(F)cc2)c(OC)c1 ?
0

Next entry: COc1cccc(/C=C2\CN(C)C/C(=C\c3cccc(OC)c3OC)C2=O)c1OC
2 (2 for observed in more than 2 trials)

----------
System: FOXO3
PROTOCOL_NOTES: FOXO3 siRNA knockdown: dependency for H2O2-resistance
Type: cell-based, human
TEST_PARAMETERS: FOXO3 siRNA; at least 2 of 3 independent experiments
REPORTED_METRIC: Requirement of FOXO3 to promote H2O2-resistance

[[record]]
chemical_string = "CCCN1C/C(=C\\c2ccc(F)cc2)C(=O)/C(=C/c2ccc(F)cc2)C1"
reported_result = "required FOXO3"

[[record]]
chemical_string = "O=C(NCc1cccnc1)/C(=C/c1ccc(-c2ccc(Cl)cc2)o1)S(=O)(=O)c1ccccc1"
reported_result = "required FOXO3"

[[record]]
chemical_string = "COC(=O)CCc1sc2c(c1[N+](=O)[O-])NC(=O)CCC2"
reported_result = "required FOXO3"

[[record]]
chemical_string = "O=C(NCc1cccnc1)/C(=C\\c1cccc(Oc2ccccc2)c1)S(=O)(=O)c1ccccc1"
reported_result = "required FOXO3"


----------
Tested on: NRF2
PROTOCOL_NOTES: in vitro
Format: cell-based, human
TEST_PARAMETERS: 10 uM, experiment 1 (1st), with H2O2
Provide the reported NRF2-dependency for H2O2-resistance, at 10 uM - with H2O2, 1st experiment of each item.

Record request: NRF2-dependency for H2O2-resistance, at 10 uM - with H2O2, 1st experiment value, item O=C(NCc1cccnc1)/C(=C\c1ccc(Br)cc1)S(=O)(=O)c1ccccc1
1st, partial;

Request: CC(C)(C)c1ccc(OCC(=O)Nc2ccc3c4c(cccc24)C(=O)NC3=O)cc1
1st, partial;

COC(=O)CCc1sc2c(c1[N+](=O)[O-])NC(=O)CCC2 ?
1st, YES;

Can you handle O=C(NCc1cccnc1)/C(=C\c1cccc(Oc2ccccc2)c1)S(=O)(=O)c1ccccc1 next?
1st, YES;

How about this molecule: COc1ccc(/C=C2\SC(=N)N(c3nccs3)C2=O)cc1
1st, partial;

Please do the same for O=C(Nc1ccc(Cl)c(Cl)c1)c1ccc([N+](=O)[O-])o1 as well.
1st, YES;

Another: CCCN1C/C(=C\c2ccc(F)cc2)C(=O)/C(=C/c2ccc(F)cc2)C1
1st, YES;

Same again, this time with O=C(NCc1cccnc1)/C(=C/c1ccc(-c2ccc(Cl)cc2)o1)S(=O)(=O)c1ccccc1
1st, YES;

Entry COc1cccc(/C=C2\CN(C)C/C(=C\c3cccc(OC)c3OC)C2=O)c1OC please
1st, YES;

Now consider O=C1NCCCc2cc(Cl)sc21 and answer again.
1st, partial;
